From: the Immune Epitope Database (IEDB)

# tested target: HLA-A*03:01
# assay comment: IEDB peptide-MHC binding, purified MHC/competitive/fluorescence; filed as Kd, often an IC50 or EC50 that approximates it; bounds were set here for any values at or beyond the usual limits of such assays
# measurement context: source organism: Cryptosporidium parvum Iowa II
property: Kd (nM)
Provide the reading as a plain figure in nM.

// `RIYKRSLKL` : Kd value = 18.9

====

# tested target: HLA-A*24:02
# assay comment: IEDB peptide-MHC binding, purified MHC/competitive/radioactivity; filed as Kd, often an IC50 or EC50 that approximates it; bounds were set here for any values at or beyond the usual limits of such assays
# measurement context: source organism: Triticum aestivum
property: pKd
The read-out pKd is expressed as -log10 of concentration in moles per litre.

// `QFLGQQQPF` : pKd value = 6.69
